- System Tested: Amylin/IAPP fibrils (Homo sapiens)
- Sequence (P10997 34-70 limits assumed): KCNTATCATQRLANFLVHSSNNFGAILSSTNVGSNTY
- Protocol Details: Congo red binding assay, Amylin/IAPP fibrils
- Type: biochemical
- Run Parameters: Amylin/IAPP:test compound wt/wt ratio 1:0.1; 3-day incubation
Outcome Measure: % Inhibition Amylin/IAPP (result ± S.D.), Congo red binding (%)

O=C(Nc1ccc(O)c(O)c1)c1cccc(O)c1O :: 35.7
Oc1ccc(C23CC4CC(C2)CC(c2ccc(O)c(O)c2)(C4)C3)cc1O [Compound 9, 1,3 bis(3,4 dihydroxyphenyl) Adamantane] :: 41.2
Oc1ccc(-c2cc(-c3ccc(O)c(O)c3)[nH]n2)cc1O [Compound 8, 3,5 bis(3,4 Dihydroxyphenyl)Pyrazole] :: 39.7
O=C(Nc1cccc(O)c1O)c1ccc(O)c(O)c1 :: 33.5
O=C(Nc1cccc(O)c1O)c1cccc(O)c1O :: 26.0
Oc1ccc(-c2nnc(-c3ccc(O)c(O)c3)[nH]2)cc1O :: 44.1
Oc1ccc(-c2cnc(-c3ccc(O)c(O)c3)[nH]2)cc1O [Compound 6, 2,4 bis(3,4 dihydroxyphenyl) Imidazole] :: 36.4
CN(C(=O)c1ccc(O)c(O)c1)c1ccc(O)c(O)c1 :: 46.0
O=S(=O)(Nc1ccc(O)c(O)c1)c1ccc(O)c(O)c1 :: 43.4
